# reported MIC; entries follow
System: Candida albicans ATCC 10231
Reported endpoint: MIC

INSERT INTO results (smiles, result) VALUES
  ('CC(C)[C@H](NC(=O)[C@H](CCCCN)NC(=O)CNC(=O)CNC(=O)[C@H](CCC(N)=O)NC(=O)[C@H](CCCCN)NC(=O)CNC(=O)[C@H](CCCN=C(N)N)NC(=O)CN)C(=O)N[C@@H](CCCN=C(N)N)C(=O)N[C@@H](C)C(=O)N[C@@H](CCCCN)C(=O)N[C@@H](C)C(=O)N[C@@H](CCCCN)C(=O)N[C@H](C(=O)N[C@@H](CCCN=C(N)N)C(=O)N[C@@H](CO)C(=O)N[C@@H](CO)C(=O)O)[C@@H](C)O', '> 68.4 µM'),
  ('CC[C@H](C)[C@H](NC(=O)[C@H](CC(C)C)NC(=O)[C@@H]1CCCN1C(=O)[C@H](CC(C)C)NC(=O)[C@@H](N)Cc1ccccc1)C(=O)NCC(=O)N[C@@H](CCCN=C(N)N)C(=O)N[C@H](C(=O)N[C@@H](CC(C)C)C(=O)N[C@@H](CO)C(=O)NCC(=O)N[C@@H](C)C(=O)N[C@@H](CC(C)C)C(N)=O)C(C)C', '20 µM');

###

These compounds were tested on Candida albicans ATCC 10231; MIC is the recorded read-out.
Reported endpoint: MIC (µM)

INSERT INTO results (smiles, reported_endpoint, result) VALUES
  ('CC(C)C[C@H](NC(=O)[C@H](CC(C)C)NC(=O)[C@H](CCCN=C(N)N)NC(=O)CNC(=O)[C@H](CC(C)C)NC(=O)[C@H](CC(C)C)NC(=O)[C@H](CCCCN)NC(=O)[C@H](CO)NC(=O)[C@H](CC(C)C)NC(=O)[C@H](Cc1c[nH]c2ccccc12)NC(=O)[C@H](CCC(N)=O)NC(=O)[C@H](CC(C)C)NC(=O)[C@@H](N)CC(C)C)C(N)=O', 'MIC', 6),
  ('CC[C@H](C)[C@H](NC(=O)[C@H](CCCCN)NC(=O)[C@@H](NC(=O)[C@H](CCC(N)=O)NC(=O)[C@@H](N)CCCCN)[C@@H](C)CC)C(=O)N[C@@H](Cc1c[nH]c2ccccc12)C(=O)N[C@@H](Cc1ccccc1)C(=O)N[C@@H](CCC(N)=O)C(=O)N[C@@H](CC(N)=O)C(=O)N[C@@H](CCCCN)C(=O)N[C@@H](CCCCN)C(=O)N[C@@H](CCSC)C(=O)N[C@@H](CCCCN)C(=O)N[C@@H](Cc1c[nH]c2ccccc12)C(=O)N[C@@H](CCCCN)C(=O)N[C@@H](CCCCN)C(N)=O', 'MIC', 50),
  ('CC(C)[C@H](NC(=O)[C@@H](NC(=O)[C@H](CCCN=C(N)N)NC(=O)[C@H](CCCN=C(N)N)NC(=O)[C@H](Cc1c[nH]c2ccccc12)NC(=O)[C@H](Cc1c[nH]c2ccccc12)NC(=O)CN)[C@@H](C)O)C(=O)N[C@@H](C)C(=O)N[C@@H](CCCCN)C(=O)N[C@@H](C)C(=O)N[C@@H](CCCN=C(N)N)C(=O)N[C@@H](CCCCN)C(N)=O', 'MIC', 25);

###

Hi! I'm sharing some MIC results obtained with Staphylococcus epidermidis.
Reported endpoint: MIC

INSERT INTO measurements (compound, result) VALUES
  ('CC[C@H](C)[C@H](NC(=O)[C@H](CCCCN)NC(=O)[C@H](CCCCN)NC(=O)[C@H](Cc1ccccc1)NC(=O)[C@H](CC(C)C)NC(=O)[C@H](CCCCN)NC(=O)[C@H](Cc1c[nH]c2ccccc12)NC(=O)[C@@H](N)CCCCN)C(=O)NCC(=O)N[C@@H](C)C(=O)N[C@H](C(=O)N[C@@H](CC(C)C)C(=O)N[C@@H](CCCCN)C(=O)N[C@H](C(=O)N[C@@H](CC(C)C)C(=O)O)C(C)C)C(C)C [KWKLFKKIGAVLKVL]', '0.707 µM'),
  ('CC[C@H](C)[C@H](N)C(=O)N[C@@H](CC(C)C)C(=O)N[C@@H](C)C(=O)N[C@@H](Cc1c[nH]c2ccccc12)C(=O)N[C@@H](CCCCN)C(=O)N[C@@H](Cc1c[nH]c2ccccc12)C(=O)N[C@@H](C)C(=O)N[C@@H](Cc1c[nH]c2ccccc12)C(=O)N[C@@H](Cc1c[nH]c2ccccc12)C(=O)N[C@@H](C)C(=O)N[C@@H](Cc1c[nH]c2ccccc12)C(=O)N[C@@H](CCCN=C(N)N)C(=O)N[C@@H](CCCN=C(N)N)C(N)=O [ILAWKWAWWAWRR]', '1.09 µM'),
  ('CC(C)C[C@H](NC(=O)[C@@H](NC(=O)[C@H](CCCCN)NC(=O)[C@H](CC(C)C)NC(=O)[C@H](C)NC(=O)[C@@H](NC(=O)[C@H](CCCCN)NC(=O)[C@H](Cc1ccccc1)NC(=O)[C@H](CC(C)C)NC(=O)[C@H](C)NC(=O)[C@H](CCCCN)NC(=O)[C@H](CC(C)C)NC(=O)[C@@H](N)Cc1ccccc1)C(C)C)C(C)C)C(=O)O [FLKALFKVALKVL]', '2.08 µM'),
  ('CC[C@H](C)[C@H](NC(=O)[C@H](CC(C)C)NC(=O)CNC(=O)[C@H](CCCCN)NC(=O)[C@H](CC(C)C)NC(=O)[C@H](CC(N)=O)NC(=O)[C@@H](N)CC(C)C)C(=O)N[C@@H](CCCCN)C(=O)N[C@@H](CCCCN)C(=O)N[C@H](C(=O)N[C@@H](C)C(=O)N[C@@H](CO)C(=O)N[C@@H](CC(C)C)C(=O)N[C@@H](CC(C)C)C(=O)N[C@@H](CC(N)=O)C(=O)O)C(C)C [LNLKGLIKKVASLLN]', '30 µM'),
  ('CC(C)[C@H](NC(=O)[C@H](CCCN=C(N)N)NC(=O)[C@H](Cc1c[nH]c2ccccc12)NC(=O)[C@H](Cc1c[nH]c2ccccc12)NC(=O)[C@H](Cc1c[nH]c2ccccc12)NC(=O)[C@H](CCCN=C(N)N)NC(=O)[C@H](Cc1c[nH]c2ccccc12)NC(=O)[C@@H](N)CCCN=C(N)N)C(=O)N[C@@H](Cc1ccc(O)cc1)C(=O)O [RWRWWWRVY]', '1.6 µM');
